Recorded measurements of melting point, one per entry

molecule: COC(=O)c1cc(OCc2c(C)cccc2C)c2nc(C)n(C)c2c1
reported.result: 165 to 169 °C

molecule: CCc1cccc(C)c1CNc1cc(C(=O)N(C)C)cc2c1nc(CO)n2C
reported.result: 138 to 141 °C

molecule: CCOC(=O)c1cc(O[C@@H]2c3c(C)ccc(C)c3C[C@H]2O)c2nc(C)n(C)c2c1 (relative stereo)
reported.result: 184 °C

molecule: Cc1nc2c(OCc3ccccc3)cc(CO)cc2n1C
reported.result: 213 to 214 °C

molecule: COCc1nc2c(NCc3c(C)cccc3C)cc(C(=O)O)cc2n1C
reported.result: 269 to 272 °C

molecule: Cc1cccc(C)c1CNc1cc(C(=O)N(C)C)cc2c1nc(C)n2COCc1ccccc1
reported.result: 55 to 56 °C

Please turn your attention to the following entry.
Form field: reported melting point of "COn1c(C)nc2c(NCc3c(C)cccc3C)cc(C(=O)O)cc21"
248 to 249 °C
